# TEST_METHOD_NOTES: Ratio of EC50 for human HepG2 cells to EC50 for Plasmodium falciparum 3D7 infected in human erythrocytes
PARAMETER: Ratio EC50

Noted for `COc1cccc(CNCCCNc2ccnc3cc(Oc4ccc(Cl)cc4)ccc23)c1O` : its Ratio EC50 reads 514

For record `COc1cccc(CNCCCNc2ccnc3cc(Oc4ccccc4)ccc23)c1O` the listed Ratio EC50 is 450

The measured Ratio EC50 associated with `COc1ccc(F)cc1CNCCCNc1ccnc2cc(Oc3cccc(N(C)C)c3)ccc12` reads 514

Record summary for `N#Cc1ccc(Cc2ccc3c(NCCCNCc4ccco4)ccnc3c2)cc1` : reported Ratio EC50 = 201.9

The recorded Ratio EC50 for entry `c1coc(CNCCCNc2ccnc3cc(C4CCCCC4)ccc23)c1` equals 40.4

molecule `COc1ccc(F)cc1CNCCCNc1ccnc2cc(Cc3ccc(C#N)cc3)ccc12` , Ratio EC50 observed: 216.2

// Ratio EC50 value for `COc1cccc(Oc2ccc3c(NCCCNCc4ccco4)ccnc3c2)c1` : 1763

Given item `c1coc(CNCCCNc2ccnc3cc(CC4CCCCC4)ccc23)c1` , the value recorded as its Ratio EC50 is 30.7

Just so you know, measured Ratio EC50 for `COc1ccc(F)cc1CNCCCNc1ccnc2cc(CC3CCCCC3)ccc12` came out at 13.3

Measured Ratio EC50, `c1ccc(Cc2ccc3c(NCCCNCc4ccc5c(c4)OCO5)ccnc3c2)cc1` : 8.7

# molecule `CC(C)CCc1ccc2c(NCCCNCc3ccco3)ccnc2c1` ; its Ratio EC50 = 63.7

====

Answer each item with its documented Papp at 0.5 h.
# TEST_METHOD_NOTES: Permeability of the compound at pH 7.4 after 30 mins by PAMPA
# Format: ADME
# CONDITION_LABEL: read-out: permeability
Answer with a number only, understood to be in ×10⁻⁶ cm/s.

Papp at 0.5 h in this record for `COc1cccc(CNCCCNc2ccnc3cc(Cc4ccc(F)cc4)ccc23)c1O` : 23

Per the record, `COc1ccc(F)cc1CNCCCNc1ccnc2cc(Cc3ccccc3)ccc12` has Papp at 0.5 h of 23

// field: Papp at 0.5 h; key: `COc1ccc(F)cc1CNCCCNc1ccnc2cc(Oc3ccccc3)ccc12` ; value = 317

Documented Papp at 0.5 h of `c1ccc(-c2ccc3c(NCCCNCc4ccc5c(c4)OCO5)ccnc3c2)cc1` : 237

Record `COc1ccc(-c2ccc3c(NCCCNCc4ccco4)ccnc3c2)cc1` , field Papp at 0.5 h: 237

Papp at 0.5 h in this record for `COc1cccc(CNCCCNc2ccnc3cc(-c4cc(C(F)(F)F)cc(C(F)(F)F)c4)ccc23)c1O` : 237

Consider `Fc1ccc(Cc2ccc3c(NCCCNCc4ccc5c(c4)OCO5)ccnc3c2)cc1` . Its measured Papp at 0.5 h is 23

Measured Papp at 0.5 h of `CC(C)(C)c1ccc(-c2ccc3c(NCCCNCc4ccco4)ccnc3c2)cc1` : 237

The molecule listed as `Fc1ccc(-c2ccc3c(NCCCNCc4ccc5c(c4)OCO5)ccnc3c2)cc1` shows Papp at 0.5 h equal to 237

Data point: `c1cc(NCCCNCc2ccc3c(c2)OCO3)c2ccc(Cc3ccc4c(c3)OCO4)cc2n1` ; Papp at 0.5 h = 237

====

# TEST_METHOD_NOTES: Solubility of the compound at pH 7.4 after 18 hrs by UV spectroscopic analysis
# Type: physicochemical
# CONDITION_LABEL: buffer
PARAMETER: solubility at 18 h (µM)
Respond with the bare value in µM.

Value of solubility at 18 h reported for the molecule `Fc1ccc(Cc2ccc3c(NCCCNCc4ccc5c(c4)OCO5)ccnc3c2)c(Cl)c1` is 4.2

Looking up `c1ccc(CCc2ccc3c(NCCCNCc4ccc5c(c4)OCO5)ccnc3c2)cc1` , I see its solubility at 18 h listed as 4.2

Looking up `COc1ccc(F)cc1CNCCCNc1ccnc2cc(Oc3ccc(C(C)(C)C)cc3)ccc12` , I see its solubility at 18 h listed as 14.5

The molecule listed as `COc1cccc(Oc2ccc3c(NCCCNCc4ccc5c(c4)OCO5)ccnc3c2)c1` shows solubility at 18 h equal to 14.5

Please fill in: solubility at 18 h reported for `COc1ccc(-c2ccc3c(NCCCNCc4cccc(OC)c4O)ccnc3c2)cc1` = 32

The value of solubility at 18 h measured for the molecule `COc1cccc(CNCCCNc2ccnc3cc(Cc4ccc(F)cc4Cl)ccc23)c1O` turned out to be 4.2

solubility at 18 h reading for `COc1cccc(Oc2ccc3c(NCCCNCc4ccco4)ccnc3c2)c1` : 14.5

// `COc1ccc(F)cc1CNCCCNc1ccnc2cc(Cc3ccc(F)cc3)ccc12` : solubility at 18 h value = 4.2

Value of measured solubility at 18 h for the entry `c1coc(CNCCCNc2ccnc3cc(-c4cccc5ccccc45)ccc23)c1` : 32

Record `COc1cccc(CNCCCNc2ccnc3cc(Cc4ccc(C#N)cc4)ccc23)c1O` . Reported solubility at 18 h: 4.2

Measured values drawn from ChEMBL document CHEMBL1833887 for this set.
